Test system: KM mice
Assay: Test for drug-induced disappearance of righting reflex in mice
Format: in vivo
Settings: 30 mg/kg, single rapid bolus via tail vein
Procedure: In anesthetic drug experiments, latency generally refers to the time from the start of administration to the loss of consciousness of the subject. The shorter latency is preferred, indicating a rapid onset of action after administration. […] KM mice (female, 18-25 g) were randomly grouped and subjected to a single administration by rapid bolus via the tail vein. The latency and duration of disappearance of righting reflex in the mice were recorded.
Labelling: Latency reported below 0.4 min becomes yes (1); at or above becomes no (0).

As a guide, the following entries are already answered.
- substance.smiles: "CCN(CC)CCSc1nnc2n1-c1ccc(Br)cc1C(c1ccccc1F)=N[C@H]2CCC(=O)OC"
  cat: "no (0)"
- substance.smiles: "CCSc1nnc2n1-c1ccc(Br)cc1C(c1ccccc1F)=N[C@H]2CCC(=O)OC"
  cat: "no (0)"
- substance.smiles: "COC(=O)CC[C@@H]1N=C(c2ccccc2F)c2cc(Br)ccc2-n2c(SCN3CCN(c4ccccc4)CC3)nnc21"
  cat: "no (0)"
- substance.smiles: "COC(=O)CC[C@@H]1N=C(c2ccccc2)c2cc(Cl)ccc2-n2c1n[nH]c2=S"
  cat: "no (0)"
- substance.smiles: "COC(=O)CC[C@@H]1N=C(c2ccccc2Cl)c2cc(Br)ccc2-n2c(SCN3CCOCC3)nnc21"
  cat: "no (0)"
- substance.smiles: "COC(=O)CC[C@@H]1N=C(c2ccccc2F)c2cc(Cl)ccc2-n2c(S)nnc21"
  cat: "yes (1)"
- substance.smiles: "COC(=O)CC[C@@H]1N=C(c2ccccc2Cl)c2cc(Cl)ccc2-n2c(SCc3ccncc3)nnc21"
  cat: "yes (1)"
- substance.smiles: "COC(=O)CC[C@@H]1N=C(c2ccccc2Cl)c2cc([N+](=O)[O-])ccc2-n2c(SCCN)nnc21"
  cat: "no (0)"
- substance.smiles: "CCSc1nnc2n1-c1ccc(Cl)cc1C(c1ccccc1Cl)=N[C@H]2CCC(=O)OC"
  cat: "no (0)"
- substance.smiles: "COC(=O)CC[C@@H]1N=C(c2ccccc2F)c2cc(Br)ccc2-n2c(SCCN)nnc21"
  cat: "yes (1)"

Challenge: Lab log: compare recorded Latency with 0.4 min; is it strictly lower for `CCCSc1nnc2n1-c1ccc(Br)cc1C(c1ccccc1Cl)=N[C@H]2CCC(=O)OC` ?
Response given: no (0)

Challenge: Lab log: compare recorded Latency with 0.4 min; is it strictly lower for `COC(=O)CC[C@@H]1N=C(c2ccccc2F)c2cc(Cl)ccc2-n2c(SC)nnc21` ?
Response given: yes (1)

Challenge: Lab log: compare recorded Latency with 0.4 min; is it strictly lower for `CCSc1nnc2n1-c1ccc(Cl)cc1C(c1ccccc1F)=N[C@H]2CCC(=O)OC` ?
Response given: no (0)

----------
Test system: KM mice
Test: Test for drug-induced disappearance of righting reflex in mice
Type: in vivo
Settings: 30 mg/kg, single rapid bolus via tail vein
Labelling: Latency reported below 0.7 min becomes label 1; at or above becomes label 0.

As a guide, the following entries are already answered.
- substance.smiles: "C#CCSc1nnc2n1-c1ccc([N+](=O)[O-])cc1C(c1ccccc1F)=N[C@H]2CCC(=O)OC"
  cat: "label 0"
- substance.smiles: "COC(=O)CC[C@@H]1N=C(c2ccccc2Cl)c2cc(Cl)ccc2-n2c(SC(C)=O)nnc21"
  cat: "label 1"
- substance.smiles: "COC(=O)CC[C@@H]1N=C(c2ccccc2Cl)c2cc(Cl)ccc2-n2c1n[nH]c2=S"
  cat: "label 0"
- substance.smiles: "COC(=O)CC[C@@H]1N=C(c2ccccc2F)c2cc(Br)ccc2-n2c(SCCN(C)C)nnc21"
  cat: "label 1"
- substance.smiles: "O=C(CC[C@@H]1N=C(c2ccccc2Cl)c2cc(Cl)ccc2-n2c1n[nH]c2=S)OCCN1CCOCC1"
  cat: "label 1"

Challenge: Lab log: compare recorded Latency with 0.7 min; is it strictly lower for `COC(=O)CC[C@@H]1N=C(c2ccccc2Cl)c2cc(Cl)ccc2-n2c(SCCn3cccc3)nnc21` ?
Response given: label 1

Challenge: Lab log: compare recorded Latency with 0.7 min; is it strictly lower for `COC(=O)CC[C@@H]1N=C(c2ccccc2F)c2cc(Br)ccc2-n2c(SCCN3CCOCC3)nnc21` ?
Response given: label 0

Source: patent US20230416258A1
